Numbers sourced from patent US6596722B2.

Target: 3H-5-HT uptake into whole rat brain synaptosomes (serotonin reuptake) (Rattus norvegicus)
Construct: from tissue; host or cells: whole rat brain synaptosomes
Sequence (P31652 whole entry): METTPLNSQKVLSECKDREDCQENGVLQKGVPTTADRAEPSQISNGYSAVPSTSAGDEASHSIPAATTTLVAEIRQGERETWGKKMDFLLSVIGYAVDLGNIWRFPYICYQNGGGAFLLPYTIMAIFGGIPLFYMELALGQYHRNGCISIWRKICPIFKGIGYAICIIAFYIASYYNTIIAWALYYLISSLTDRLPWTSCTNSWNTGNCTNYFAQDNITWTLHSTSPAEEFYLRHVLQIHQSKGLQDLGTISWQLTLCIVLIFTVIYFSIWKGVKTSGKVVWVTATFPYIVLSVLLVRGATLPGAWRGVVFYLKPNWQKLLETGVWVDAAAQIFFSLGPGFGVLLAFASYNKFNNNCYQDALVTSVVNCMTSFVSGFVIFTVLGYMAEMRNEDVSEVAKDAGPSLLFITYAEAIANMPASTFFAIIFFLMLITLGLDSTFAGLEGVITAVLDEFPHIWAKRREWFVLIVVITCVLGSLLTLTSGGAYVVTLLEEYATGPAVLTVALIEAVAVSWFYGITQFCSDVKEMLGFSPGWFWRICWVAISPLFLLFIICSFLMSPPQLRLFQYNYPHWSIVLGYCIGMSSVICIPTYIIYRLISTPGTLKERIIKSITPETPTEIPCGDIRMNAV
Assay: Inhibition of 3H-5-HT uptake into rat brain synaptosomes
Format: biochemical
Conditions: 3H-5-HT accumulation into whole rat brain synaptosomes, in vitro; read-out: Inhibition of serotonin reuptake IC50
Method: Inhibition of ^3H-5-HT Uptake Into Rat Brain Synaptosomes. Using this method, the ability of drugs to inhibit the accumulation of ^3H-5-HT into whole rat brain synaptosomes is determined in vitro.
// boundary case: IC50 equal to 30 nM maps to 0; strictly smaller maps to 1

Reference set, count: 6
C1=CC(CCCCN2CCN(c3cccc4c3OCCO4)CC2)c2ccccc21 (stereo not drawn)    0
Cc1ccc2c(CCN3CCN(c4cccc5c4OCCO5)CC3)coc2c1    0
Clc1ccc2occ(CCN3CCN(c4cccc5c4OCCO5)CC3)c2c1    0
Cc1cccc2occ(CCN3CCN(c4cccc5c4OCCO5)CC3)c12    1
Fc1ccc2occ(CCN3CCN(c4cccc5c4OCCO5)CC3)c2c1    1
Clc1ccc2c(CCN3CCN(c4cccc5c4OCCO5)CC3)n[nH]c2c1    0

Lab note: confirm whether the reported IC50 for this compound is below 30 nM, equality not counting. compound: Clc1cccc2c(CCN3CCN(c4cccc5c4OCCO5)CC3)coc12
1

Is 30 nM strictly greater than the compound's reported IC50? compound: c1ccc2c(c1)CCC2CCCCN1CCN(c2cccc3c2OCCO3)CC1 (stereo not drawn)
0

Here's an entry: Cc1ccc(Cl)c2occ(CCCN3CCN(c4cccc5c4OCCO5)CC3)c12 . Is its IC50 below 30 nM?
0
